Biological target: T1, PD-1 (analyte in the BIAcore X100 assay) (UniProt Q15116 25-167, limits assumed)
T1 construct: also called Programmed Cell Death 1
T1 sequence (Q15116 25-167 limits assumed): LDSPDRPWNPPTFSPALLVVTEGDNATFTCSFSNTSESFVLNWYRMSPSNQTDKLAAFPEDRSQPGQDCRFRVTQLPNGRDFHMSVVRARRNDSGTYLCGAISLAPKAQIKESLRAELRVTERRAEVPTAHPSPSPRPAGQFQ
Test: SPR, BIAcore X100, antibody captured by anti-human IgG on CM5 chip, PD-1 as analyte
MEASURED_METRIC: pKd
Reminder that pKd means the negative base-10 logarithm of the concentration expressed in mol/L.

DFPD1-10 full-length anti-PD-1 monoclonal antibody (antibody, human IgG4 S228P, kappa, V domains shown, Expressed in HEK293E cells and purified on protein A) VH: QVQLVESGGGVVQPGRSLRLDCKASGITFSNYGMHWVRQAPGKGLEWVAVIWYDSSRKYYADSVKGRFTISRDNSKNTLFLQMNSLRAEDTAVYYCATNNDYWGQGTLVTVSS VL: DIQMTQSPSSLSASVGDRVTITCRASQSVSNYLDWYQQKPGKAPKLLIYDASTRATGVPSRFSGSGSGTDFTLTISSLQPEDFATYYCQQNMQLPLTFGQGTKVEIKR
8.40

Requested field: pKd. Item: DFPD1-13 full-length anti-PD-1 monoclonal antibody (antibody, human IgG4 S228P, kappa, V domains shown, Expressed in HEK293E cells and purified on protein A) VH: QVQLVESGGGVVQPGRSLRLDCKASGITFSNNGMHWVRQAPGKGLEWVAVIWYDSSRKYYADSVKGRFTISRDNSKNTLFLQMNSLRAEDTAVYYCATNNDYWGQGTLVTVSS VL: DIQMTQSPSSLSASVGDRVTITCRASQSVSNYLDWYQQKPGKAPKLLIYDASTRATGVPSRFSGSGSGTDFTLTISSLQPEDFATYYCQQNMQLPLTFGQGTKVEIKR 8.02

Now consider DFPD1-11 full-length anti-PD-1 monoclonal antibody (antibody, human IgG4 S228P, kappa, V domains shown, Expressed in HEK293E cells and purified on protein A) VH: QVQLVESGGGVVQPGRSLRLDCKASGITFSNNGMHWVRQAPGKGLEWVAVIWYDSSRKYYADSVKGRFTISRDNSKNTLFLQMNSLRAEDTAVYYCATNNDYWGQGTLVTVSS VL: DIQMTQSPSSLSASVGDRVTITCRASQSIHNYLDWYQQKPGKAPKLLIYNASTRATGVPSRFSGSGSGTDFTLTISSLQPEDFATYYCQQELHLPLTFGQGTKVEIKR and answer again. 7.96

Now consider DFPD1-9 full-length anti-PD-1 monoclonal antibody (antibody, human IgG4 S228P, kappa, V domains shown, Expressed in HEK293E cells and purified on protein A) VH: QVQLVESGGGVVQPGRSLRLDCKASGITFSNYGMHWVRQAPGKGLEWVAVIWYDSSRKYYADSVKGRFTISRDNSKNTLFLQMNSLRAEDTAVYYCATNNDYWGQGTLVTVSS VL: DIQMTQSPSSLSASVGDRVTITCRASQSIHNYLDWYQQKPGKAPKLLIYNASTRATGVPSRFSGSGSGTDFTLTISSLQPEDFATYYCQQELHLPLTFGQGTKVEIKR and answer again. 8.19

Now consider DFPD1-12 full-length anti-PD-1 monoclonal antibody (antibody, human IgG4 S228P, kappa, V domains shown, Expressed in HEK293E cells and purified on protein A) VH: QVQLVESGGGVVQPGRSLRLDCKASGITFSNYGMHWVRQAPGKGLEWVAVIWYDGSKKYYADSVKGRFTISRDNSKNTLFLQMNSLRAEDTAVYYCATNNDYWGQGTLVTVSS VL: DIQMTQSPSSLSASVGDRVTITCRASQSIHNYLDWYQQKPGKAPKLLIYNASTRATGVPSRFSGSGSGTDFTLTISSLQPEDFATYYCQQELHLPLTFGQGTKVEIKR and answer again. 7.65

Every entry's value here was drawn from patent US20190144541A1.
